FYI, the data here is from patent US20070128217A1.

System: antibodies in sera from SARS patients (sera 1a, 1b, 2, 6, 37, 62, London, SARS-yellow, SARS-green)
Type: binding, human
Set-up: unit not given here
Observation Type: Binding of serum 6 to looped/cyclic peptides of protein M of SARS-CoV Urbani
Reply with just the number.

For the sequence shown here, LEQWNLVIGFLFLAW , give the reported Binding of serum 6 to looped/cyclic peptides of protein M of SARS-CoV Urbani. 0.5

Any idea what its Binding of serum 6 to looped/cyclic peptides of protein M of SARS-CoV Urbani is? The sequence is DSGFAAYNRYRIGNY 0.6

For the sequence shown here, ETNILLNVPLRGTIV , give the reported Binding of serum 6 to looped/cyclic peptides of protein M of SARS-CoV Urbani. 0.8

Fill blank: measured Binding of serum 6 to looped/cyclic peptides of protein M of SARS-CoV Urbani of the sequence PETNILLNVPLRGTI is ____. 0.9

For LFLAWIMLLQFAYSN , what is its reported Binding of serum 6 to looped/cyclic peptides of protein M of SARS-CoV Urbani? 0.7

Dear colleague, I am looking for the recorded Binding of serum 6 to looped/cyclic peptides of protein M of SARS-CoV Urbani of the following sequence: IKLVFLWLLWPVTLA 0.9

Tell me the measured Binding of serum 6 to looped/cyclic peptides of protein M of SARS-CoV Urbani of IGFLFLAWIMLLQFA , please. 0.9

Looking for the measured Binding of serum 6 to looped/cyclic peptides of protein M of SARS-CoV Urbani of YIIKLVFLWLLWPVT , can you help? 0.8

Given SELVIGAVIIRGHLR , state its recorded Binding of serum 6 to looped/cyclic peptides of protein M of SARS-CoV Urbani. 0.6

Quick check: Binding of serum 6 to looped/cyclic peptides of protein M of SARS-CoV Urbani of ELKQLLEQWNLVIGF ? 0.8

Given the entry FLFLAWIMLLQFAYS , report its measured Binding of serum 6 to looped/cyclic peptides of protein M of SARS-CoV Urbani. 0.9

---

Tested on: antibodies in sera from SARS patients (sera 1a, 1b, 2, 6, 37, 62, London, SARS-yellow, SARS-green)
Assay type: binding, human
Exercise: for every item that follows, state its recorded Binding of serum 62 to linear peptides of protein X5 of SARS-CoV Urbani.
Number only, please.

# input sequence: LPFHRWHTMVQTCTP ; wanted: its Binding of serum 62 to linear peptides of protein X5 of SARS-CoV Urbani 0.8

What Binding of serum 62 to linear peptides of protein X5 of SARS-CoV Urbani value was documented for this sequence, TRGNTYSTAWLCALG ? 0.8

Fill in the blank: the reported Binding of serum 62 to linear peptides of protein X5 of SARS-CoV Urbani of NTRGNTYSTAWLCAL is ____. 0.7

Requested field: Binding of serum 62 to linear peptides of protein X5 of SARS-CoV Urbani. Item: VLPFHRWHTMVQTCT 0.7

Which value of Binding of serum 62 to linear peptides of protein X5 of SARS-CoV Urbani has been reported for LIARCWYLHEGHQTA in the records? 0.9

// lookup Binding of serum 62 to linear peptides of protein X5 of SARS-CoV Urbani for AAFRDVLVVLNKRTN 0.4

# lookup: Binding of serum 62 to linear peptides of protein X5 of SARS-CoV Urbani of GALIARCWYLHEGHQ 0.7

For TPNVTINCQDPAGGA , what is its reported Binding of serum 62 to linear peptides of protein X5 of SARS-CoV Urbani? 0.5
